Measurement Target: Human Serum Albumin (human) (UniProt P02768)
Protocol Details: BLI (Octet Red), HSA on sensor tips, VH domain in solution, 1:1 fit
Attribute Measured: pKd
A value of pKd is the negative decimal logarithm of a concentration given in moles per litre.

Binder | Attribute Measured | Value Observed
VH-3C2 (protein) VH: QVQLQQSGPGLVKPSQTLSLTCAISGDSVSSKSAAWNWIRQSPSRGLEWLGRTYYRSKWYNDYVVSLRSRITVSPDTSKNQFSLQLNSVTPEDTAMYYCARTRGHIDLWGRGTLVTVSSSASGAGS | pKd | 7.62
VH-3E11 (protein) VH: QVQLQQSGPGLVKPSQTLSLTCAISGDSVSGNSAAWNWIRQSPSRGLEWLGRTYYRSKWYIGYAASLQSRLAINADTSKNQLSLRLSSVTPEDTAVYYCVGRHYSGHSGAFDTWGHGTMVTVSSSASGAGS | pKd | 7.63

Qu. Reported pKd, binder VH-4D6 (protein) VH: EVQLVQSGAEVKKPGESLKISCKGSGYSFTSYWIGWVRQMPGKGLEWMGIIYPGDSDTRYSPSFQGQVTISADKSISTAYLQWSSLKASDTAMYYCARLDCSGGSCYYYYYGMDVWGQGTTVTVSSSASGAGS : ____
Ans. 7.88

Qu. Reported pKd, binder VH-1C5 (protein) VH: QVQLQQSGPGLVKPSQTLSLTCAISGDSVSSNSAAWNWIRQSPSRGLEWLGRTYYRSKWYNDYAVSVKSRITINPDTSKNQFSLQLNSVTPEDTAVYYCARTPSTGTLDCWGRGTLVTVSSSASGAGS : ____
Ans. 7.74

Qu. Reported pKd, binder VH-3B11 (protein) VH: EVQLVQSGAEVKKPGESLKISCKGSGYSFTSYWIGWVRQMPGKGLEWMGIVYPGDSDTRYSPSFQGQVTISAGKSISTAYLQWSSLKASDTAMYYCARPSMGATTWISAFDIWGQGTTVTVSSSASGAGS : ____
Ans. 7.74
